# test_target: METTL3/METTL14 (Homo sapiens)
# Sequence (Q86U44 whole entry, species assumed): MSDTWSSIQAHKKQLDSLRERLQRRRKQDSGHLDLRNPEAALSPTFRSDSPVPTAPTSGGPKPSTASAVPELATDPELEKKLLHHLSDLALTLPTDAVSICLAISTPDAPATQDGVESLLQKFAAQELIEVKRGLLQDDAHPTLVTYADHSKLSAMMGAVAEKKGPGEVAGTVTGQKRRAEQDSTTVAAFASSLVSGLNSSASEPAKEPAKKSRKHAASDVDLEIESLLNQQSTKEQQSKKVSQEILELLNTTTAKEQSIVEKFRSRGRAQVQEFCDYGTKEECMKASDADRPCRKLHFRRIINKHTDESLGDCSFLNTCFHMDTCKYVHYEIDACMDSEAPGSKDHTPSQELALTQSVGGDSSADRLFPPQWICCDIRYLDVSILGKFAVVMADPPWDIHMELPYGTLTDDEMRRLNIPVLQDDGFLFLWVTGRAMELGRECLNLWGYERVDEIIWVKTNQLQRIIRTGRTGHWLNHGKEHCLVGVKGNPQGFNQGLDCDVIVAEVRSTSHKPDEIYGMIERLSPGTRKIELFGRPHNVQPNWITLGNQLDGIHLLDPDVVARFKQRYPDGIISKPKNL
# Sequence (Q9HCE5 whole entry partner, species assumed): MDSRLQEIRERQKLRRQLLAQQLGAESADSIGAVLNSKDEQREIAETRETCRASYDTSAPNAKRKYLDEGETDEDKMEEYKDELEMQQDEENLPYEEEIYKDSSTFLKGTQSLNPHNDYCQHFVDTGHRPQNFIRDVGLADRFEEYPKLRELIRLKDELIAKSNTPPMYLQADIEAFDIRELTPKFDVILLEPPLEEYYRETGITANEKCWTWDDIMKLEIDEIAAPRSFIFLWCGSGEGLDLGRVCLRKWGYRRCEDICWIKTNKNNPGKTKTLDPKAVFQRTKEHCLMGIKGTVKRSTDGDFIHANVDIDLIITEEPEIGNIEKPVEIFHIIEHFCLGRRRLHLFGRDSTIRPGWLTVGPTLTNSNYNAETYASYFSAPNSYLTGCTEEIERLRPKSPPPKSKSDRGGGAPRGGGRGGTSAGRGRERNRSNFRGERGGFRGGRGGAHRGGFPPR
# assay_summary: METTL3-14 Standard Enzyme Assay (METTL3 biochemical assay)
# reported_conditions: METTL3 biochemical assay; read-out: METTL3 IC50
The following molecules are listed with their measured IC50 values.

Some molecules with known IC50 results, for comparison:
>>> test_value("Nc1ncnc2c1ccn2[C@@H]1C[C@H](CCc2ccc3[nH]c(=O)[nH]c3c2)[C@@H](O)[C@H]1O")
"> 1000 nM"
>>> test_value("Nc1cc2cc(CC[C@H]3C[C@@H](n4ccc5c(N)ncnc54)[C@H](O)[C@@H]3O)ccc2cn1")
"> 1000 nM"
>>> test_value("Nc1ncnc2c1c(Br)cn2[C@@H]1O[C@H](COc2ccc3ccc(N4CCCC4)nc3c2)[C@@H](O)[C@H]1O")
"10 to 100 nM"
>>> test_value("CNc1ccc2ccc(OC[C@H]3O[C@@H](n4ccc5c(N)nc(C(=O)OC)nc54)[C@@H](F)[C@@H]3O)cc2n1")
"> 1000 nM"

METTL3/METTL14 (Homo sapiens) / IC50 / `C=CCc1cn([C@@H]2O[C@H](COc3ccc4ccc(NC)nc4c3)[C@@H](O)[C@H]2O)c2ncnc(N)c12` : value?
< 10 nM

Tell me reported IC50 for `CNc1ccc2ccc(CC[C@H]3O[C@@H](n4cc(C5CCCC5)c5c(N)ncnc54)[C@H](O)[C@@H]3O)cc2n1` , tested with METTL3/METTL14 (Homo sapiens).
< 10 nM

Lookup: IC50 / METTL3/METTL14 (Homo sapiens) / `Nc1ncnc2c1ccn2[C@@H]1C[C@H](CCc2ccccn2)[C@@H](O)[C@H]1O`
> 1000 nM

Field: IC50 (METTL3/METTL14 (Homo sapiens)). Entry: `CNc1ccc2ccc(OC[C@H]3O[C@@H](n4cc(Cl)c5c(N)ncnc54)C[C@@H]3O)cc2n1`
< 10 nM

Hi! What's the reported IC50 for `Nc1ncnc2c1ccn2[C@@H]1O[C@H](CCc2ccc3ccc(N4CCCC4)nc3c2)[C@@H](O)[C@H]1O` on METTL3/METTL14 (Homo sapiens)?
10 to 100 nM

Lookup: IC50 / METTL3/METTL14 (Homo sapiens) / CNc1ccc2ccc(OC[C@H]3O[C@@H](n4cc(C5CCN(C)C5)c5c(N)ncnc54)[C@@H](F)[C@@H]3O)cc2n1 (stereo partly drawn)
10 to 100 nM

For METTL3/METTL14 (Homo sapiens), provide IC50 of `CCNc1ccc2ccc(OC[C@H]3C[C@@H](n4ccc5c(N)ncnc54)[C@H](O)[C@@H]3O)cc2n1` please.
10 to 100 nM

Request - read-out IC50 | tested on METTL3/METTL14 (Homo sapiens) | molecule `CNc1ccc2ccc(OC[C@H]3O[C@@H](n4cc(C5CCC(F)(F)CC5)c5c(N)ncnc54)[C@H](O)[C@@H]3O)cc2n1`
< 10 nM

Request body: readout IC50, system METTL3/METTL14 (Homo sapiens), query `Nc1nc2ccc(OC[C@H]3O[C@@H](n4cc(Br)c5c(N)ncnc54)[C@@H](F)[C@@H]3O)cc2[nH]1` . Return the value.
100 to 1000 nM

Missing value: IC50, METTL3/METTL14 (Homo sapiens), entry `CNc1ccc2ccc(CC[C@H]3C[C@@H](n4cc(C5CCOCC5)c5c(N)ncnc54)[C@H](O)[C@@H]3O)cc2n1` . Fill in?
10 to 100 nM

# value lookup — system METTL3/METTL14 (Homo sapiens), readout IC50, item `Nc1ncnc2c1ccn2[C@H]1C[C@H](O)[C@@H](COc2ccc3ccc(NC4CC4)nc3c2)O1`
10 to 100 nM

Entry source: patent US20230027361A1
